- Test system: U2OS
- test_name: drug GRADE (percent of response due to cell death) (% (0-100)); higher = more death-driven response
- conditions_used: 72 h
List of drug GRADE values.

{"columns": ["record_smiles", "drug GRADE"],
 "data": [
  ["COc1cc2nccc(Oc3ccc(NC(=O)Nc4cc(C)on4)c(Cl)c3)c2cc1OC", 7.57]
]}

Let's switch to this compound now.
Answer with reported drug GRADE of "COC(=O)Nc1nc2cc(C(=O)c3ccc(F)cc3)ccc2[nH]1" 61.2

###

List of fractional viability values.
- System: U2OS
- test_name: fractional viability (live cells / total cells); higher = less cell death
- conditions_used: 3.16 µM; 72 h

Below, each entry is followed by its recorded fractional viability result.
{"columns": ["compound", "fractional viability"],
 "data": [
  ["CN(C)/N=N/c1[nH]cnc1C(N)=O", 0.964],
  ["CCOc1cc2ncc(C#N)c(Nc3ccc(OCc4ccccn4)c(Cl)c3)c2cc1NC(=O)/C=C/CN(C)C", 0.189],
  ["COC1CCN(C(=O)c2cc(Cc3n[nH]c(=O)c4ccccc34)ccc2F)CC1", 0.97]
]}

Answer with reported fractional viability of CCOc1ccccc1-n1c(C(C)N2CCN(C(=O)COc3ccc(Cl)cc3)CC2)nc2ccccc2c1=O (configuration not stated) 0.945

Answer with reported fractional viability of "CC[C@]1(O)C[C@H]2CN(CCc3c([nH]c4ccccc34)[C@@](C(=O)OC)(c3cc4c(cc3OC)N(C=O)[C@H]3[C@@](O)(C(=O)OC)[C@H](OC(C)=O)[C@]5(CC)C=CCN6CC[C@]43[C@@H]65)C2)C1" 0.427

Answer with reported fractional viability of "COC(=O)Nc1nc2cc(C(=O)c3ccc(F)cc3)ccc2[nH]1" 0.595

Answer with reported fractional viability of "COC(=O)c1ccc([C@H]2c3[nH]c4ccccc4c3C[C@H](C(=O)OC)N2C(=O)CCl)cc1" 0.566

###

- System: U2OS
- test_name: fractional viability (live cells / total cells); higher = less cell death
- conditions_used: 0.316456 µM; 72 h
measurement_type: fractional viability
Reply: number alone, nothing else.

{"columns": ["record_smiles", "fractional viability"],
 "data": [
  ["Nc1ccc(-c2ccc3ncc4ccc(=O)n(-c5cccc(C(F)(F)F)c5)c4c3c2)cn1", 0.985],
  ["CCNC(=O)c1noc(-c2cc(C(C)C)c(O)cc2O)c1-c1ccc(CN2CCOCC2)cc1", 0.464],
  ["CC(=O)Nc1cccc(-n2c(=O)n(C3CC3)c(=O)c3c(Nc4ccc(I)cc4F)n(C)c(=O)c(C)c32)c1", 0.442],
  ["CCc1cnn2c(NCc3ccc[n+]([O-])c3)cc(N3CCCC[C@H]3CCO)nc12", 0.35],
  ["CC(=O)c1c(C)c2cnc(Nc3ccc(N4CCNCC4)cn3)nc2n(C2CCCC2)c1=O", 0.988]
]}

Answer with reported fractional viability of "CCOc1cc2ncc(C#N)c(Nc3ccc(OCc4ccccn4)c(Cl)c3)c2cc1NC(=O)/C=C/CN(C)C" 0.933

Answer with reported fractional viability of "CC(=O)O[C@H]1C(=O)[C@@]2(C)[C@H]([C@H](OC(=O)c3ccccc3)[C@]3(O)C[C@H](OC(=O)[C@H](O)[C@@H](NC(=O)c4ccccc4)c4ccccc4)C(C)=C1C3(C)C)[C@]1(OC(C)=O)CO[C@@H]1C[C@@H]2O" 0.591

Answer with reported fractional viability of "CC[C@@H]1C(=O)N(C)c2cnc(Nc3ccc(C(=O)N[C@H]4CC[C@H](N5CCN(CC6CC6)CC5)CC4)cc3OC)nc2N1C(C)C" 0.563

###

List of normalized growth rate inhibition value values.
- Tested on: U2OS
- test_name: normalized growth rate inhibition value (GR) relative to untreated cells (GR value (dimensionless, 1 = untreated growth)); higher = less growth inhibition
- conditions_used: 0.0100433 µM; 72 h
Reply: number alone, nothing else.

Below, each entry is followed by its recorded normalized growth rate inhibition value result.
{"columns": ["compound", "normalized growth rate inhibition value"],
 "data": [
  ["CN(C)CC[C@H](CSc1ccccc1)Nc1ccc(S(=O)(=O)NC(=O)c2ccc(N3CCN(Cc4ccccc4-c4ccc(Cl)cc4)CC3)cc2)cc1[N+](=O)[O-] [ABT-737]", 1.02],
  ["COc1cc2c(Oc3ccc4[nH]c(C)cc4c3F)ncnc2cc1OCCCN1CCCC1 [Cediranib]", 1.11]
]}

Let's switch to this compound now.
Answer with reported normalized growth rate inhibition value of Nc1cc(C(F)(F)F)c(-c2cc(N3CCOCC3)nc(N3CCOCC3)n2)cn1 [Buparlisib] 0.959

###

List of normalized growth rate inhibition value values.
- Test system: U2OS
- test_name: normalized growth rate inhibition value (GR) relative to untreated cells (GR value (dimensionless, 1 = untreated growth)); higher = less growth inhibition
- conditions_used: 0.316912 µM; 72 h
Reply: number alone, nothing else.

{"columns": ["compound", "normalized growth rate inhibition value"],
 "data": [
  ["N.N.[Cl][Pt][Cl] [Cisplatin]", 0.972]
]}

Answer with reported normalized growth rate inhibition value of "Cc1nc(Nc2ncc(C(=O)Nc3c(C)cccc3Cl)s2)cc(N2CCN(CCO)CC2)n1" 0.799

Answer with reported normalized growth rate inhibition value of "CCc1cncnc1N1CCN(Cc2nc3ccc(C(F)(F)F)cc3[nH]2)CC1" 1

Answer with reported normalized growth rate inhibition value of "CC(=O)O[C@@]12CO[C@@H]1C[C@H](O)[C@@]1(C)C(=O)[C@H](O)C3=C(C)[C@@H](OC(=O)[C@H](O)[C@@H](NC(=O)OC(C)(C)C)c4ccccc4)C[C@@](O)([C@@H](OC(=O)c4ccccc4)[C@H]21)C3(C)C" -0.174

Answer with reported normalized growth rate inhibition value of "COc1cc2c(Oc3ccc4[nH]c(C)cc4c3F)ncnc2cc1OCCCN1CCCC1" 1.07

###

List of normalized growth rate inhibition value values.
- System: U2OS
- test_name: normalized growth rate inhibition value (GR) relative to untreated cells (GR value (dimensionless, 1 = untreated growth)); higher = less growth inhibition
- conditions_used: 3.16456 µM; 72 h

{"columns": ["compound", "result_value"],
 "data": [
  ["COc1cc2nccc(Oc3ccc(NC(=O)C4(C(=O)Nc5ccc(F)cc5)CC4)cc3)c2cc1OC [Cabozantinib]", 0.443]
]}

Answer with reported normalized growth rate inhibition value of Cc1nc(Nc2ncc(C(=O)Nc3c(C)cccc3Cl)s2)cc(N2CCN(CCO)CC2)n1 [Dasatinib] 0.35

Answer with reported normalized growth rate inhibition value of CC(C)NC[C@@H](C(=O)N1CCN(c2ncnc3c2[C@H](C)C[C@H]3O)CC1)c1ccc(Cl)cc1 [Ipatasertib] 0.824

Answer with reported normalized growth rate inhibition value of CN1CCN(CCOc2cc(OC3CCOCC3)c3c(Nc4c(Cl)ccc5c4OCO5)ncnc3c2)CC1 [Saracatinib] 0.528

Answer with reported normalized growth rate inhibition value of Cc1nc(NC(=O)N2CCC[C@H]2C(N)=O)sc1-c1ccnc(C(C)(C)C(F)(F)F)c1 [Alpelisib] 0.79

Answer with reported normalized growth rate inhibition value of Cc1nc(-c2cn3c(n2)-c2ccc(-c4cnn(C(C)(C)C(N)=O)c4)cc2OCC3)n(C(C)C)n1 [Taselisib] 0.604

Answer with reported normalized growth rate inhibition value of "Cc1nn(C)c(COc2ccc(N3CCN(S(=O)(=O)N(C)C)CC3)cc2)c1-c1cccc2c(CCCOc3cccc4ccccc34)c(C(=O)O)n(CCN3CCOCC3)c12" 0.919

###

- Test system: U2OS
- test_name: normalized growth rate inhibition value (GR) relative to untreated cells (GR value (dimensionless, 1 = untreated growth)); higher = less growth inhibition
- conditions_used: 0.0100433 µM; 72 h
List of normalized growth rate inhibition value values.
Reply: number alone, nothing else.

Below, each entry is followed by its recorded normalized growth rate inhibition value result.
{"columns": ["compound", "result_value"],
 "data": [
  ["Cc1cc(Nc2ncc(Cl)c(Nc3ccccc3S(=O)(=O)C(C)C)n2)c(OC(C)C)cc1C1CCNCC1", 1.15],
  ["O=C(c1cc(Cc2n[nH]c(=O)c3ccccc23)ccc1F)N1CCN(C(=O)C2CC2)CC1", 1.03],
  ["COc1cc2nccc(Oc3ccc(NC(=O)C4(C(=O)Nc5ccc(F)cc5)CC4)cc3)c2cc1OC [Cabozantinib]", 1.03]
]}

Let's switch to this compound now.
Answer with reported normalized growth rate inhibition value of "CS(=O)(=O)N1CCN(Cc2cc3nc(-c4cccc5[nH]ncc45)nc(N4CCOCC4)c3s2)CC1" 0.953

###

- Tested on: U2OS
- test_name: fractional viability (live cells / total cells); higher = less cell death
- conditions_used: 0.100289 µM; 72 h
List of fractional viability values.
Reply: number alone, nothing else.

Below, each entry is followed by its recorded fractional viability result.
{"columns": ["compound", "fractional viability"],
 "data": [
  ["Cc1cc(C(C)Nc2ccccc2)c2nc(N3CCOCC3)cc(=O)n2c1 (stereo not given)", 0.988],
  ["CCN1CCN(Cc2ccc(Nc3ncc(F)c(-c4cc(F)c5nc(C)n(C(C)C)c5c4)n3)nc2)CC1", 0.986],
  ["CN1CCN(CCOc2cc(OC3CCOCC3)c3c(Nc4c(Cl)ccc5c4OCO5)ncnc3c2)CC1", 0.98],
  ["O=C1NC(=O)[C@@H](c2cn3c4c(cccc24)CCC3)[C@@H]1c1c[nH]c2ccccc12 [Tivantinib]", 0.975]
]}

Answer with reported fractional viability of "Cc1nc(-c2cn3c(n2)-c2ccc(-c4cnn(C(C)(C)C(N)=O)c4)cc2OCC3)n(C(C)C)n1" 0.964
